B1: LINE1-full (parent)
chain: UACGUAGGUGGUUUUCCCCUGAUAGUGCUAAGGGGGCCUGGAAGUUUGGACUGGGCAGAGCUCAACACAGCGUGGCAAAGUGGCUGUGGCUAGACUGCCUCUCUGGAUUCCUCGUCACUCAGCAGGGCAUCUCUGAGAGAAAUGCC

variants of: B1; assay: self-cleavage, relative activity (ratio to wild type); higher = more cleavage; in vitro, sequencing; the parent is a self-cleaving ribozyme
self-cleavage values by entry
Reply with the value as a number alone.

UACGUAGGUGGUUUUCCCCUGCUAGUGCUAAGGGGGCCUGGAAGUUUGGACUGGGCAGAGCUCAACACAGCGUGGCAAAGUGGCUGUGGCUUGACUGCCUCUCUGGAUUCCUCGUCACUCAGCAGGGCAUCUCUGAGAGAAAUGCC :: 1.7

Turning now to a further record.
self-cleavage reading for UACGUAGGUGGUUUUCCCCUGAUAGUGCUAAGAGGGCCUGGAAGUUUGGACUGGGCAGAGCUCAACACAGCGUGGCAAAGUGGCUGUGGCUAGACCGCCUCUCUGGAUUCCUCGUCACUCAGCAGGGCAUCUCUGAGAGAAAUGCC : 0.12
